The origin of these recorded values is paper PMC8704880.

tested on: HT-29, MCF-7, A375, K562 and NCM460 cell lines; assay: MTT cytotoxicity assay, whole panel of cell lines; format: cell-based, human; conditions: all tested cell lines
MEASUREMENT_LABEL: cytotoxic activity toward the tested cell lines (in words)

Q. Report cytotoxic activity toward the tested cell lines (in words) for CC[C@@H](O)CC1CCC([C@H](C)C(=O)OC(C)C)O1 (stereo partly drawn) [Compound 9] please.
A. broad toxicity

Q. Item CC[C@@H](O)CC1CCC([C@H](C)C(=O)Nc2ccccc2N)O1 (stereo partly drawn) [Compound 18] has what recorded cytotoxic activity toward the tested cell lines (in words)?
A. broad toxicity

Q. Which cytotoxic activity toward the tested cell lines (in words) is listed for CCC[C@H](CC1CCC([C@H](C)C(=O)O)O1)O[Si](C)(C)C(C)(C)C (stereo partly drawn) [Compound 20] ?
A. broad toxicity
